All values here come from paper PMC6509406.

molecular target: DgcA (CC3285) diguanylate cyclase (Caulobacter crescentus); assay: FRET-based DGC activity assay, dose-response; format: biochemical; conditions: IC50 ± SD, Table 2; negative and silent allosteric modulators
IC50 for assorted molecules
observed property: IC50 (µM)

INSERT INTO results (smiles_code, assayed_system, scale_unit, reported_measurement) VALUES
  ('O=C(OCC(=O)N1CCCC1=O)c1ccc2nccnc2c1', 'DgcA (CC3285) diguanylate cyclase (Caulobacter crescentus)', 'µM', 344),
  ('Cc1nc2ccc(C(=O)OCC(=O)N3CCCC3=O)cc2s1', 'DgcA (CC3285) diguanylate cyclase (Caulobacter crescentus)', 'µM', 52.9),
  ('O=C(OCC(=O)N1CCCC1=O)c1ccc2scnc2c1', 'DgcA (CC3285) diguanylate cyclase (Caulobacter crescentus)', 'µM', 627),
  ('O=C(OCC(=O)N1CCCC1=O)c1ccc2occc2c1', 'DgcA (CC3285) diguanylate cyclase (Caulobacter crescentus)', 'µM', 4.4),
  ('O=C(OCC(=O)N1CCCC1=O)c1ccc2[nH]ccc2c1', 'DgcA (CC3285) diguanylate cyclase (Caulobacter crescentus)', 'µM', 324),
  ('Cn1cnc2cc(C(=O)OCC(=O)N3CCCC3=O)ccc21', 'DgcA (CC3285) diguanylate cyclase (Caulobacter crescentus)', 'µM', 82.2),
  ('O=C(OCC(=O)N1CCCC1=O)c1ccc2cnccc2c1', 'DgcA (CC3285) diguanylate cyclase (Caulobacter crescentus)', 'µM', 179),
  ('Cn1ccc2cc(C(=O)OCC(=O)N3CCCC3=O)ccc21', 'DgcA (CC3285) diguanylate cyclase (Caulobacter crescentus)', 'µM', 300),
  ('O=C(OCC(=O)N1CCCC1=O)c1ccc2ncoc2c1', 'DgcA (CC3285) diguanylate cyclase (Caulobacter crescentus)', 'µM', 3.1);

* * *

target: UniProtKB Q9A3B9; experiment: FRET-based DGC activity assay, dose-response; assay type: biochemical; details: IC50 (binding affinity) against DgcA, running text and figure legends
pIC50: −log10 of the molar value.
pIC50 for assorted compounds
observed property: pIC50

INSERT INTO assay_data (compound, observed_property, inequality_symbol, reported_measurement) VALUES
  ('Cc1ccc(C)c(OCCCC(=O)Nc2ccc(N3CCOCC3)cc2)c1 [Compound 2]', 'pIC50', '>', 5.00),
  ('O=C(NCC(=O)N1CCCC1=O)c1ccc2ncsc2c1 [Compound 1s]', 'pIC50', '=', 4.50),
  ('O=C(OCC(=O)N1CCCC1=O)c1ccc2ncsc2c1 [Compound 1]', 'pIC50', '>', 5.00),
  ('O=C(OCC(=O)N1CCCC1=O)c1ccc2scnc2c1 [Compound 1p]', 'pIC50', '=', 3.20);

* * *

molecular target: DgcA (CC3285) diguanylate cyclase (Caulobacter crescentus); assay: FRET-based DGC activity assay, dose-response; type: biochemical; conditions: Table 2; compound saturation
observed property: % Activity ESI (DGC activity of the enzyme-substrate-inhibitor complex) (%)

INSERT INTO results (smiles_code, reported_measurement) VALUES
  ('O=C(OCC(=O)N1CCCC1=O)c1ccc2cnccc2c1', 0.0),
  ('O=C(OCC(=O)N1CCCC1=O)c1ccc2[nH]ccc2c1', 6.3),
  ('O=C(OCC(=O)N1CCCC1=O)c1ccc2nccnc2c1', 0.0),
  ('O=C(OCC(=O)N1CCCC1=O)c1ccc([N+](=O)[O-])cc1', 156.4),
  ('Cc1nc2ccc(C(=O)OCC(=O)N3CCCC3=O)cc2s1', 68.1),
  ('O=C(OCC(=O)N1CCCC1=O)c1ccc2ncoc2c1', 87.7),
  ('O=C(OCC(=O)N1CCCC1=O)c1ccccc1', 117.9),
  ('CN(C)c1ccc(C(=O)OCC(=O)N2CCCC2=O)cc1', 176.1),
  ('O=C(OCC(=O)N1CCCC1=O)c1ccc2occc2c1', 92.2);
